- assay_target: T1, RFS1 E138A (Walker B);RIP1 (cShu subunit);SWS1 (cShu subunit) (Caenorhabditis elegans;Caenorhabditis …, UniProt P34348;Q21621;Q8MYM5 1-245;1-209;1-191, E138A||)
- T1 sequence 1: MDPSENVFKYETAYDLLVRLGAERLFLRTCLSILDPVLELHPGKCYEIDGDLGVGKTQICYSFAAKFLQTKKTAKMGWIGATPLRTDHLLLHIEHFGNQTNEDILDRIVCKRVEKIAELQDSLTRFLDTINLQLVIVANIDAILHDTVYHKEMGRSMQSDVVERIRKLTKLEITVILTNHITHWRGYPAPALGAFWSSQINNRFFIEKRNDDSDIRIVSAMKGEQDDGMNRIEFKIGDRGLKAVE
- T1 sequence 2: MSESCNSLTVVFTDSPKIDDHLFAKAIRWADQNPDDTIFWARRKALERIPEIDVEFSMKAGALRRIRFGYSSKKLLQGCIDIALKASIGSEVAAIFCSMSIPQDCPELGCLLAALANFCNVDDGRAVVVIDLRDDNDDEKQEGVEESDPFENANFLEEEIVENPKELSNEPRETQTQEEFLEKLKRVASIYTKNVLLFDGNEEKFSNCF
- T1 sequence 3: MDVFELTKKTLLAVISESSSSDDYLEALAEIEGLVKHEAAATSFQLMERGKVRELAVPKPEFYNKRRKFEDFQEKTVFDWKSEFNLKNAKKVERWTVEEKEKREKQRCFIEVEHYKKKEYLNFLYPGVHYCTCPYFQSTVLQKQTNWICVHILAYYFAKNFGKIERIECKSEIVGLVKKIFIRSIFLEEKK
- test_description: fluorescence polarization
Consider the following binders; for each one, report its Kd.
// return numeric value only (unit: nM, not printed)

Record 5'-overhang (20 nt) (mixed) DNA 1: TTTTTTTTTTTTTTTTTTTTCTTGACAAGCTTGCGCACT DNA 2: AGTGCGCAAGCTTGTCAAG , field Kd: 1200

Record Fork (20 nt) (mixed) DNA 1: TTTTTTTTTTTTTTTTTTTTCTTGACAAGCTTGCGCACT DNA 2: AGTGCGCAAGCTTGTCAAGGCACTTTTTTTTTTTTTTTT , field Kd: 380

Record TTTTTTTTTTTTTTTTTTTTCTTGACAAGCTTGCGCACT (ssDNA) [ss39] , field Kd: 2200
